- System: RPMI-8226
- test protocol: NCI tumour cell line growth inhibition, 48 h
Calls of active or inactive are those of the source. Cut-off read from the data, not from the text of the source: active = GI50 up to about 1.1 µM and inactive = higher.
measured quantity: GI50

Below, 4 compounds whose answers are already recorded.
Respond only with GI50 recorded for COC(=O)CC1NC(=O)C1C1(C)OCCO1 (stereo not given) > 100 µM (inactive)

Supply reported GI50 belonging to this compound: O=C1CC(c2c(-c3ccccc3)[nH]c3ccccc23)C(=O)N1c1ccccc1 (stereo not given) 37.6 µM (inactive)

Dear colleague, please send me the reported GI50 for `COc1c(-c2nc3ccc(N4CCN(C)CC4)cc3[nH]2)cc(OC)c2[nH]c(COC(C)=O)nc12` when you can. 34.7 µM (inactive)

Please look at this compound and report its GI50: `Nc1nc(O)c2nc(N)n(Cc3ccccc3)c2n1` > 100 µM (inactive)

***
Please give measured GI50 of the following entry: N=C1N(c2ccccc2)C(=O)C23CCCC2C13N1CCOCC1 (stereo not given) > 100 µM (inactive)

Data credit: ChEMBL document CHEMBL1201862
